Measured thermal stability score, listed per entry for reference.
# System: HeLa Kyoto;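 further: synchronized HeLa Kyoto cells, proteins quantified by TMT10plex mass spectrometry, three biological replicates, mitosis taken 0.5 h after nocodazole release, G1/S directly after double thymidine block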
# Method Summary: thermal stability score vs G1/S (z-score of summed log2 fold changes over temperatures); higher = more thermally stable than in G1/S
# Test Conditions: cell cycle stage: mitosis

[
  {
    "Chain": "MSYTPGVGGDPAQLAQRISSNIQKITQCSVEIQRTLNQLGTPQDSPELRQQLQQKQQYTNQLAKETDKYIKEFGSLPTTPSEQRQRKIQKDRLVAEFTTSLTNFQKVQRQAAEREKEFVARVRASSRVSGSFPEDSSKERNLVSWESQTQPQVQVQDEEITEDDLRLIHERESSIRQLEADIMDINEIFKDLGMMIHEQGDVIDSIEANVENAEVHVQQANQQLSRAADYQRKSRKTLCIIILILVIGVAIISLIIWGLNH [STX7]",
    "thermal stability score": -2.01
  },
  {
    "Chain": "MAADISESSGADCKGDPRNSAKLDADYPLRVLYCGVCSLPTEYCEYMPDVAKCRQWLEKNFPNEFAKLTVENSPKQEAGISEGQGTAGEEEEKKKQKRGGRGQIKQKKKTVPQKVTIAKIPRAKKKYVTRVCGLATFEIDLKEAQRFFAQKFSCGASVTGEDEIIIQGDFTDDIIDVIQEKWPEVDDDSIEDLGEVKK [DENR]",
    "thermal stability score": 0.467
  },
  {
    "Chain": "MVHCSCVLFRKYGNFIDKLRLFTRGGSGGMGYPRLGGEGGKGGDVWVVAQNRMTLKQLKDRYPRKRFVAGVGANSKISALKGSKGKDCEIPVPVGISVTDENGKIIGELNKENDRILVAQGGLGGKLLTNFLPLKGQKRIIHLDLKLIADVGLVGFPNAGKSSLLSCVSHAKPAIADYAFTTLKPELGKIMYSDFKQISVADLPGLIEGAHMNKGMGHKFLKHIERTRQLLFVVDISGFQLSSHTQYRTAFETIILLTKELELYKEELQTKPALLAVNKMDLPDAQDKFHELMSQLQNPKDFLHLFEKNMIPERTVEFQHIIPISAVTGEGIEELKNCIRKSLDEQANQENDALHKKQLLNLWISDTMSSTEPPSKHAVTTSKMDII [GTPBP10]",
    "thermal stability score": 0.176
  },
  {
    "Chain": "MAAAAARWNHVWVGTETGILKGVNLQRKQAANFTAGGQPRREEAVSALCWGTGGETQMLVGCADRTVKHFSTEDGIFQGQRHCPGGEGMFRGLAQADGTLITCVDSGILRVWHDKDKDTSSDPLLELRVGPGVCRMRQDPAHPHVVATGGKENALKIWDLQGSEEPVFRAKNVRNDWLDLRVPIWDQDIQFLPGSQKLVTCTGYHQVRVYDPASPQRRPVLETTYGEYPLTAMTLTPGGNSVIVGNTHGQLAEIDLRQGRLLGCLKGLAGSVRGLQCHPSKPLLASCGLDRVLRIHRIQNPRGLEHKVYLKSQLNCLLLSGRDNWEDEPQEPQEPNKVPLEDTETDELWASLEAAAKRKLSGLEQPQGALQTRRRKKKRPGSTSP [WDR74]",
    "thermal stability score": -1.48
  },
  {
    "Chain": "MPMFIVNTNVPRASVPDGFLSELTQQLAQATGKPPQYIAVHVVPDQLMAFGGSSEPCALCSLHSIGKIGGAQNRSYSKLLCGLLAERLRISPDRVYINYYDMNAANVGWNNSTFA [MIF]",
    "thermal stability score": -7.71
  }
]
